Molecular target: T1, TNFR1 (Homo sapiens, UniProt P19438)
T1 chain: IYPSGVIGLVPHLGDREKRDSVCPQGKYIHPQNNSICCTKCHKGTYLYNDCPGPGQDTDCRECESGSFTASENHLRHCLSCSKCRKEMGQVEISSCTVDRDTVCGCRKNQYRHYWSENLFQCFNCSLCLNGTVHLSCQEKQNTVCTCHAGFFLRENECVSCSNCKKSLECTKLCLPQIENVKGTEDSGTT
Assay: yeast display SC50
# apparent Kd (screen) per entry
Please respond with the number in nM and leave the unit unwritten.

Please review the following examples before continuing.
{"Binder": "V60C (designed binder) MTLQELLREEALRRAEAEAFRYALELLAEKFPEQKEYLLDLAEEIESQIRSLSGVDVEDCRKFLDKEWAWVKELLAEHPAELAEVEAARAARLAELRAEVEAKVAA", "Unit": "nM", "apparent Kd (screen)": 0.79}
{"Binder": "A28Y (designed binder) MTLQELLREEALRRAEAEAFRYALELLYEKFPEQKEYLLDLAEEIESQIRSLSGVDVEDVRKFLDKEWAWVKELLAEHPAELAEVEAARAARLAELRAEVEAKVAA", "Unit": "nM", "apparent Kd (screen)": 22.2}
{"Binder": "A28L (designed binder) MTLQELLREEALRRAEAEAFRYALELLLEKFPEQKEYLLDLAEEIESQIRSLSGVDVEDVRKFLDKEWAWVKELLAEHPAELAEVEAARAARLAELRAEVEAKVAA", "Unit": "nM", "apparent Kd (screen)": 20.2}
{"Binder": "L82D (designed binder) MTLQELLREEALRRAEAEAFRYALELLAEKFPEQKEYLLDLAEEIESQIRSLSGVDVEDVRKFLDKEWAWVKELLAEHPAEDAEVEAARAARLAELRAEVEAKVAA", "Unit": "nM", "apparent Kd (screen)": 5.84}

Enquiry: Recorded apparent Kd (screen) for K72R (designed binder) MTLQELLREEALRRAEAEAFRYALELLAEKFPEQKEYLLDLAEEIESQIRSLSGVDVEDVRKFLDKEWAWVRELLAEHPAELAEVEAARAARLAELRAEVEAKVAA , please?
Return: 0.869

Enquiry: Would you mind doing E5I (designed binder) MTLQILLREEALRRAEAEAFRYALELLAEKFPEQKEYLLDLAEEIESQIRSLSGVDVEDVRKFLDKEWAWVKELLAEHPAELAEVEAARAARLAELRAEVEAKVAA as well?
Return: 0.49

Enquiry: What about Y37T (designed binder) MTLQELLREEALRRAEAEAFRYALELLAEKFPEQKETLLDLAEEIESQIRSLSGVDVEDVRKFLDKEWAWVKELLAEHPAELAEVEAARAARLAELRAEVEAKVAA ?
Return: 10.4

Enquiry: Same question for E29N (designed binder) MTLQELLREEALRRAEAEAFRYALELLANKFPEQKEYLLDLAEEIESQIRSLSGVDVEDVRKFLDKEWAWVKELLAEHPAELAEVEAARAARLAELRAEVEAKVAA please.
Return: 0.956

Enquiry: Next: G54T (designed binder) MTLQELLREEALRRAEAEAFRYALELLAEKFPEQKEYLLDLAEEIESQIRSLSTVDVEDVRKFLDKEWAWVKELLAEHPAELAEVEAARAARLAELRAEVEAKVAA
Return: 0.446

Enquiry: Note, next up: I45N (designed binder) MTLQELLREEALRRAEAEAFRYALELLAEKFPEQKEYLLDLAEENESQIRSLSGVDVEDVRKFLDKEWAWVKELLAEHPAELAEVEAARAARLAELRAEVEAKVAA
Return: 4.83
